I'd be grateful if you could share measured pIC50 for these entries.
- Test system: MOLM-13 cells (human acute myeloid leukemia cells)
- Test description: MOLM-13 Cellular Assay
- Type: cell-based
- Reported conditions: Homo sapiens, MOLM-13, 72 h, 72 hours exposure, cell viability by CellTiter-Glo
- Protocol: The following assay is referred to herein as the “MOLM-13 Cellular Assay.” MOLM-13 cells (human acute myeloid leukemia cells) were obtained from DSMZ and were maintained in RPMI 1640+Glutamax+25 mM HEPES (Invitrogen, catalog number 72400) supplemented with 10% heat inactivated fetal bovine serum (FBS; Invitrogen, catalog number 16140). The day prior to assay set-up, cells were pelleted, resuspended in fresh media, counted, and cells were plated at 0.4×10^6 cell/mL in a T150 flask. […]
One number for each entry, as −log10 of the molar value.

Answered cases to consult:
CCn1c(CO)nn(-c2cc3c([C@@H](C)C(F)(F)F)nn(-c4ccccc4C)c(=O)c3cc2F)c1=O (single isomer, unassigned) : 9.00
CCn1c(CO)nn(-c2cc3c(C(C)C)cn(-c4ccnc(OC)c4C)c(=O)c3cc2F)c1=O : 7.30
C=C(C)c1cn(-c2ccccc2C(F)(F)F)c(=O)c2ccc(-n3nc(CO)n(CC)c3=O)cc12 : 8.70

I'm hoping you can list pIC50 for every compound here, please.
1. C=C(c1cn(-c2ccccc2C)c(=O)c2cc(F)c(-n3nc(CO)n(CC)c3=O)cc12)C(F)(F)F
2. CCn1c(CO)nn(-c2cc3c(C(C)C)cn(-c4c(F)ccc(OC)c4Cl)c(=O)c3cc2F)c1=O

Result ::
1: 9.52; 2: 9.52

---

- Experimental target: UniProt Q02127
Assignment: determine reported log10(IC50) for the given compounds.
Recall that a logarithmic scale is used here: each number is log10 of IC50 in nM.

Before answering, review these 5 worked examples.
C=C(C)c1cn(-c2c(C)cnc(OC)c2Cl)c(=O)c2cc(F)c(-n3nc(CO)n(CC)c3=O)cc12 : -0.08
CCn1c(CO)nn(-c2cc3c(C(C)C)cn(-c4c(C)ccnc4OC)c(=O)c3cc2F)c1=O : 0.44
CCn1c(CO)nn(-c2nc3c([C@@H](C)C(F)(F)F)cn(-c4ccccc4C)c(=O)c3cc2F)c1=O : -0.33
CCn1c(CO)nn(-c2nc3c(C(C)C)cn(-c4ccccc4C)c(=O)c3cc2F)c1=O : -0.10
CCn1c(CO)nn(-c2cc3c(C(C)C)cn(-c4nnccc4C)c(=O)c3cc2F)c1=O : 1.85

List the reported log10(IC50) of each compound below.
1. CCn1c(CO)nn(-c2cc3c(C(C)C)cn([C@H]4CCCC[C@@H]4C)c(=O)c3cc2F)c1=O (stereo in doubt)
2. CCn1c(CO)nn(-c2cc3c(C(C)C)cn(-c4cccnc4C)c(=O)c3cc2F)c1=O
3. C=C(C)c1cn(-c2c(C)n[nH]c2Cl)c(=O)c2cc(F)c(-n3nc(CO)n(CC)c3=O)cc12
4. C=C(C)c1cn(-c2cc(C)cnc2Cl)c(=O)c2cc(F)c(-n3nc(CO)n(CC)c3=O)cc12

Result ::
1. 0.87
2. 1.91
3. -0.54
4. 0.82

Provide log10(IC50) values for the following items, in order.
1. CCn1c(CO)nn(-c2cc3c(C(C)C)cn(C45CCC(CC4)C5)c(=O)c3cc2F)c1=O
2. CCn1c(CO)nn(-c2ccc3c(=O)n(-c4c(F)cccc4Cl)cc(C(C)C)c3c2)c1=O
3. CCn1c(CO)nn(-c2cc3c(C(C)C)cn([C@H]4CC[C@@H](OC)C4)c(=O)c3cc2F)c1=O (racemic)

Result ::
1: 1.28; 2: 0.54; 3: 1.00

Batch request: log10(IC50) for each of the following compounds.
1. C=C(C)c1cn(-c2ccccc2C)c(=O)c2cc(C)c(-n3nc(CO)n(CC)c3=O)cc12
2. C=C(C)c1cn(-c2cc(C)ccc2Cl)c(=O)c2cc(F)c(-n3nc(CO)n(CC)c3=O)cc12
3. CCn1c(CO)nn(-c2cc3c(C(C)C)cn(-c4ccnc(O)c4C)c(=O)c3cc2F)c1=O

Result ::
[1.23, -0.04, 1.02]

---

- Tested on: MOLM-13 cells (human acute myeloid leukemia cells)
- Test description: MOLM-13 Cellular Assay
- Format: cell-based
- Reported conditions: Homo sapiens, MOLM-13, 72 h, 72 hours exposure, cell viability by CellTiter-Glo
Kindly apply the following: true if IC50 is less than 1 nM, false in every other case.

Example entries and their recorded answers appear below.
CCn1c(CO)nn(-c2cc3c(C(C)C)cn(-c4cnsc4C)c(=O)c3cc2F)c1=O : false
C=C(C)c1cn(-c2cc(C)ccc2F)c(=O)c2cc(F)c(-n3nc(CO)n(CC)c3=O)cc12 : true

Query :: Take the compound "CCn1c(CO)nn(-c2cc3c([C@H](C)C(F)(F)F)cn(-c4ccccc4C)c(=O)c3cc2F)c1=O" and say whether its IC50 is less than 1 nM.
Result :: true

Query :: I'd appreciate it if you could check whether "CCn1c(CO)nn(-c2cc3c(C(C)C)cn(-c4ccccc4Cl)c(=O)c3cc2F)c1=O" has IC50 smaller than 1 nM.
Result :: true

Query :: Does this compound meet the criterion IC50 < 1 nM? "CCn1c(CO)nn(-c2cc3c(C(C)C)cn(-c4ccncc4C)c(=O)c3cc2F)c1=O"
Result :: false

Query :: In the record for "CCn1c(CO)nn(-c2cc3c(C(C)C)cn(-c4nc(C)ccc4C)c(=O)c3cc2F)c1=O" , is IC50 less than 1 nM?
Result :: false

Query :: Strictly below 1 nM in IC50? "C=C(C)c1cn(-c2cc(C)cnc2Cl)c(=O)c2cc(F)c(-n3nc(CO)n(CC)c3=O)cc12"
Result :: false

---

- Experimental target: human DHODH (Homo sapiens (Human), UniProt Q02127)
- Sequence (Q02127 whole entry): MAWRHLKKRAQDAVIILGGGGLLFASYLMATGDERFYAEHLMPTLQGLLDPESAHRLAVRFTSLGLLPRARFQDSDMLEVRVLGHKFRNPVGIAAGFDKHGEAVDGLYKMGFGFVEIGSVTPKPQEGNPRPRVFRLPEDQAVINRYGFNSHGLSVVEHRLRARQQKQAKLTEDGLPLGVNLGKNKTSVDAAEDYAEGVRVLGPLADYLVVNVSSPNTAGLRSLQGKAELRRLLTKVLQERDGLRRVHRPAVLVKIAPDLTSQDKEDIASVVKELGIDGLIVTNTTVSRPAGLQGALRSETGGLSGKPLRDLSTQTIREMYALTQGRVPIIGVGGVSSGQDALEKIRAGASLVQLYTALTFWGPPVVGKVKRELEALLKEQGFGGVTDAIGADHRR
Would you kindly list IC50 for each of these compounds?
Numbers only, in nM.

Reference set, count: 3
CCc1nn(-c2ccccc2C)c(=O)c2ccc(-n3nc(CO)n(CC)c3=O)cc12 : 31.2
CCn1c(CO)nn(-c2cc3c(C(C)C)cn([C@H]4CCCC[C@H]4C)c(=O)c3cc2F)c1=O : 11.6
CCn1c(CO)nn(-c2nc3c(C(C)C)cn(-c4ccccc4C(F)F)c(=O)c3cc2F)c1=O : 1.13

List the reported IC50 of each compound below.
1. CCn1c(CO)nn(-c2cc3c(C(C)C)cn(-c4ccccc4C)c(=O)c3cc2F)c1=O
2. C=C(C)c1cn(-c2ccccc2OC)c(=O)c2cc(F)c(-n3nc(CO)n(CC)c3=O)cc12
3. C=C(C)c1cn(-c2cc(OC)ccc2F)c(=O)c2cc(F)c(-n3nc(CO)n(CC)c3=O)cc12
4. CCn1c(CO)nn(-c2cc3c(C(C)C)cn(-c4nc(OC)ccc4F)c(=O)c3cc2F)c1=O

Result ::
[0.396, 0.444, 2.22, 6.14]

Query :: # IC50 lookup, item "CCn1c(CO)nn(-c2cc3c(C(C)C)cn(-c4csnc4C)c(=O)c3cc2F)c1=O"
Result :: 33.7

---

- Tested on: MOLM-13 cells (human acute myeloid leukemia cells)
- Test description: MOLM-13 Cellular Assay
- Type: cell-based
- Reported conditions: Homo sapiens, MOLM-13, 72 h, 72 hours exposure, cell viability by CellTiter-Glo
pIC50: −log10 of the molar value.
hey, just use true if measured pIC50 is less than 9, otherwise false

Observe how each entry below is paired with its result.
CCn1c(CO)nn(-c2cc3c(C(C)C)cn(-c4c(C)ccnc4Cl)c(=O)c3cc2F)c1=O [Example 23] : true
CCn1c(CO)nn(-c2cc3c(C(C)C)cn([C@@H]4CCC[C@@H]4C)c(=O)c3cc2F)c1=O (stereo in doubt) [Example 125] : true
CCn1c(CO)nn(-c2nc3c(C)nn(-c4ccccc4C)c(=O)c3cc2F)c1=O [Example 33] : true
CCn1c(CO)nn(-c2cc3c(C(C)C)cn(-c4cccc(F)c4C)c(=O)c3cc2F)c1=O [Example 74] : true
C=C(C)c1cn(-c2cc(C)ccc2Cl)c(=O)c2cc(F)c(-n3nc(CO)n(CC)c3=O)cc12 [Example 43] : false
CCn1c(CO)nn(-c2nc3c(C(C)C)cn(-c4c(F)cccc4Cl)c(=O)c3cc2F)c1=O [Example 36] : false
CCn1c(CO)nn(-c2cc3c(C(C)C)nn(-c4c(F)cccc4Cl)c(=O)c3cc2F)c1=O [Example 54] : false

Now for a further molecule.
Query :: Problem: For the molecule CCn1c(CO)nn(-c2cc3c(C(C)C)cn(-c4cc(C)ncc4C)c(=O)c3cc2F)c1=O [Example 135] , is pIC50 under 9?
Result :: true

Source: patent US11505536B2
